assay: yeast display, Sf9 membrane polyspecificity reagent, FACS + sequencing; frameworks hold sequencing errors
experimental_endpoint: polyreactivity (PSR sort gate)

Example results:
1. QVQLVESGGGLVQAGGSLRLSCAASGSTFVYYALGWYRPSPGKERELVARITRSGGSTYYADSVKGRFTISRDNAKNTVYLQMNSLKPEDTAVYYCAAEQSVYFLVFTGVKFDYWGQGSQVTVSS ... low polyreactivity
2. QVQLVESGGGLVQAGGSLRLSCAASGLIFYPYAMGWYRQAPGKERELVAGISSSGDSTYYADSVKGRFTISRDNAKNTVYLQMNSLKPDDTAVYYCNTGWDPYGYDYWGQGTQVTVSS ... low polyreactivity
3. QVQLVESGGGLVQAGGSLRITCAASGSTFYRNAMGWYRQAPGKERELVAALSRGGSTYYADSVKGRFTISRDNAKNTVYLQMNSLKPEDSAVYYCAARYYSYQYGRHTRYQSVYWGQGTQVTVSS ... high polyreactivity
4. QVQLVESGGGLVQAGGSHRLSCAASGRLFRYYDMGWYRQAPGKERELVARISSTGRTYADSVMGRFTISRDNAKNTVYLQMNSLKPVDTAVYYCAALFHTRGHSKYDYWGQGTQVTVSS ... high polyreactivity

According to the records, this sequence `QEQLQESGGCLVQAGGSLRLSCAASGSIFKVVDMGLYRQSPAKEREFVATIGEGGKTYYADSVKGRFTISRDNEKNTVYLQMNSLKPEDTAVYFYAVVLGTSYRYTYWGEGTQVTVSS` displays polyreactivity (PSR sort gate) of low polyreactivity

According to the records, this sequence `QVQLVESGGGLVQAGGSLRLSCAASGRIFWYYTMGWYRQAPGKERELVAAISNGGSTYYADSVKGRFTISRDNAKNPVYLQMNSLKPEDTAVYYCAADNFRNPDYYYWGQGTQVTVSS` displays polyreactivity (PSR sort gate) of high polyreactivity

----------
test: yeast display, Sf9 membrane polyspecificity reagent, FACS + sequencing; frameworks hold sequencing errors
experimental_endpoint: polyreactivity (PSR sort gate)

Example results:
1. QVQLVESGGGLVQAGGSLRLSCAASGFTFRANAMGWYRQAPGKERELFATISRGGPTNYADSVKGRFTISRDNAKNTVYLQMNSLKPADTAVYYCAASFSPYHTDRGDYWGQGTQVTVSS ... high polyreactivity
2. QVQLVESGGGLVQAGGSLRLICAASGRSFNLYAMGWYRQAPGKERELVAAISYSGGRTYSADSVKGRFTISRDNAKNTVYLQMNSLKPEDTAVYYCNTVRGSVRQAGVGYEYWGQGTQVTVSS ... high polyreactivity
3. QVQLVESGGGLVQAGGRLRLSCAASGFIFYFYAMGWYRQAPGKERELVAAISWSGGSPYYADSVKGRFTISRDNAKNTVYLQMNSLKPEDTAVYYCAADTRTSYYNDDYDYWGQGTQVTVSS ... low polyreactivity
4. QVQLVESGGGLVQAGGSLRLSCAASGFTFLYNVMGWYRQAPGKERELVAAISQSGTDTYYADSVKGRFTISRDNAKNTVYLQMNSLKPEDTAVYYCATEYYSQPRDDSWGQGTQVTVSS ... low polyreactivity
5. QVQLVESGGGLVQAGGSLRLSCAASGFIIVNNAMGWYRQAPGKERELVATISRGGSTNYADSVKGRFTISRDNAKNTVYLQMNSLKPEDTAVYYCNARRSVKVYGVDYWGQGTQVTVSS ... high polyreactivity
6. QVQIVESGGGLVQAGGSLRVSCAASGRTFRLYAMGWYRQAPGKERELVAAITRGGRTNYADSVKGRFTISRDNAKYTVYLHMNSLKPEDTAVYYCAARYVERHTDYYYWGQGSQVTVSS ... low polyreactivity
7. QVQLVESGGGLVQAGGSLRLSCAASGFTFTAYAMGWYRPAPGKERELVAAISYRGGRTNYAYSVKGRFTISRDNAKNTVYLQMNSLKPEDTAVYYCAARPRISTREMDYWGQGTQVTVSS ... high polyreactivity
8. QVQLVESGGGLVQAGGRLRLSCAASGSIFPFYAMGWYRQAPGKERELVAAISDRGGSTYYADSVKGRFTISRDNAKNTVYLQMISLKPEDTAVYYCAKGGEVSQGYTDEYDYWGQGTQVTVSS ... low polyreactivity

According to the records, this sequence `QVQLVESGGGLVQEGGSLRLSCADSGRIFSTNAMGWSRQAPGKERELVAAISWSTGSTYYADSVKGRFTISRDNAKNTVYLQMNSLKPEDTAVYYCAASYTRTYWAYSYGYWGQGTQVTVSS` displays polyreactivity (PSR sort gate) of high polyreactivity

According to the records, this sequence `QVQLVESGRGLVQAGGSLRLSCAASGFIFSYYAMGWYRPAPGKERELVAAITVTGGNTNYADSVKGRFTISRDNAKNTVYLQMNSLKPEDTAVYYCAAVVRGPGVYVYDWGQGTQVTVSS` displays polyreactivity (PSR sort gate) of low polyreactivity

According to the records, this sequence `QVQLVESGGGLVQAGGSLRLSCAASGFIFWLYPMGWYRQAPGKERELVAAISSSGGNTYYADSVKGRFTISRDNAKNTVDLQMISLKPEDTAVYYCAASYSYGRTYSGYYWGQGTQVTVSS` displays polyreactivity (PSR sort gate) of low polyreactivity

----------
assay: yeast display, Sf9 membrane polyspecificity reagent, FACS + sequencing; frameworks hold sequencing errors
experimental_endpoint: polyreactivity (PSR sort gate)

Example results:
1. QVQLVESGGGLVQAGGSLRLSCAASGGTSYAYTMGWYRQAPGKERELVAAISGSTGSTYYADSVKGRFTISRDNAKNTVYLQMNSLKPEDTAVYYCALLVGHNYWGQGTQVTVSS ... low polyreactivity
2. QVQLVESGGGLVQAGGSLRLICAASGTNFVFNAIGWYRQAPGKERELVAINSGGSTYYADSVKGRFTNSRDNAKNTVFLQMNSLIPEDTAVYYCAKDRLRVWRFDYWGQGTQVTVST ... low polyreactivity
3. QVQLVESGGGLVQAGGSLRLSCAASGRTFRTNTMGWYRQAPGKERELVAAIRYIGGSTYYADSVKGRFTISRDNAKNTFYLLMNSLKPEDTAVYYCAAYRYGSRYGYEYWGQGTQVTVSS ... high polyreactivity
4. QVQLVESGGGLVQARGSLRLSCAASGRILYSYAMGWYRQAPGKERELVASISLSGGRTYADSVKGRFTISRDNAKNTVYLQMNSLKPEDTAVYYCNDRIRTSRYLWPFDYWGQGTQVTVSS ... high polyreactivity
5. QVQLVESRGGVVQAGGSLRLRCAASGRTFYRNVMGWSRQAPGKERELVAAITGDGGSTYYADSVKGRFTISRDNAKNTVYVQMNSQKAEVTAVYYCAASVYPQKRFFYWGHGTQVTVSS ... high polyreactivity

Could you now look at the following sequence, please?
According to the records, this sequence `QVQLVESGGGLVQAGGSLRLSCDASGRTFPINAMGWYRQAPGKERELVAAISSGDGITYYADSVKGRFTISRDNAKNTVYLQMNSLKPEDTAVYYCAKELSQGLRYDYWGQGTQVTVSS` displays polyreactivity (PSR sort gate) of high polyreactivity

----------
assay: yeast display, Sf9 membrane polyspecificity reagent, FACS + sequencing; frameworks hold sequencing errors
experimental_endpoint: polyreactivity (PSR sort gate)

Example results:
1) QVQLVESVGGLVQAGGSLRLSCAASGRTFRAYAMGWYRQEPGKERELVAAIRWGGGRTYYADSVKGRFTISRDNAKYTVYLQMNSLKPEDTAVYYCAADRTYDYDYWGQGTLVTVSS ... high polyreactivity
2) QVQLVESGGGLVQAGGSLRLSCAASGRIFVFYAMGWYRQAPGKERELVAAITSGGSTYYADSVKGRFTISRDNAKNTVYLQMNSLKPEDTAVYYCAARGRVSWSTYWYEYWGQGTQVTVSS ... high polyreactivity
3) QLQLVESGGGLVQAGGSLRLSCAASGRNFVHNAMGWYRPAPGKEREFVAAISLRGGSTYYADSVKGRFTTSRDNAKNSVYLQMNSLKPEDTAVYYCAAVPAHFYGYDYWGQGTQVTVSS ... low polyreactivity
4) QVHLVESGGGLVQAGGSLRISCAASGFTFRYNAMGWNRQAPGKERELVAAISRGTITNYADSVKGRFTISRDNAKNTVYLQMNSLKPEDTAVYYCAARYPGHFRFYYWGQGTQVTVSS ... high polyreactivity
5) QVQLVESGGGLVQAGGSLRLSCAASGSTFSLYAMGWYRQAPGKERELVAAISWSDGSTYYADSVKGRFTISRDNAKNTVYLQMNSLKPEDTAVYYCAAESTVRPYEHSGDYWGQGTQVTVSS ... low polyreactivity
6) QVQLVESGGGLVQAGGSLRLSCPASGGIFEGNAMGWYRQAPGKEMELVASITYGGGSTYYADSVKGRFTISRDNAKNTVYLQMNSLKPEDTAVYYCAADATTPGVQNGYGSWGQGTQVTVSS ... low polyreactivity
7) QVQLVESGGGLVQAGGSLRLSCAASGSIFRVYAMGWYRQAPGKERELVAAITNGGNTNYADSVKGRFTISRDNAKNTVYLQMNSLKPEDTAVYYCAATLHRYWYRLYYYWGQGTQVTVSS ... high polyreactivity
8) QVQLVESGGRLVQAGGSLRLSCAASGSIFVKYAMGWYRPAPGKERELVAAISGSGGSTYYADSVKGRFTISRDNAKTTVYLEMNSLKPEDTAVYYCAADDYFYSGRYGFEFWGHGTQVTVSS ... low polyreactivity

According to the records, this sequence `QVQLVESGGGLVQAGGSLRLSCAASGFTFNRYAMGWYRQAPGKEREFVAAITRRGGNTYYADSVKGRFTISRDNAKNTVYLQMNSLKPEDSAVYYCNAVFGPSSYGAKEYDYWGQGTQVTVSS` displays polyreactivity (PSR sort gate) of high polyreactivity

According to the records, this sequence `QVQLVESGGGLVQAGGSLRLSCAASGSTFPNYPMGWYRQAPGKERELVAAITWSGGSTDYADSVKGRFTISRDNAKNTVYLQMNSLKPEDTAVYYCNADFGYWWDGRRYDYWGQGTQVTVSS` displays polyreactivity (PSR sort gate) of low polyreactivity

According to the records, this sequence `QVQLVESGGGLVQAGGSLRLSCAASGFTFYSYALGWYIQAPGKERELVAAISRGGSTTYADSVKGRFTISRDNAKNTVYLQMNSLKPEDTAVYYCAARYRYRYTPYRYDYWGQGTQVTVSS` displays polyreactivity (PSR sort gate) of high polyreactivity
